# System: Manduca Gut Extract (MGE)
# PROTOCOL: Manduca Gut Extract (MGE) digest of TVPs
# Type: in vitro ADME, Manduca sexta
# EXPERIMENTAL_SETUP: in the presence of MGE, relative to Ta1b
Parameter Fold Stability Improvement: see the listing below.
Enter your answer as a number in fold; do not include the unit.

-- ask Give a short answer stating reported Fold Stability Improvement for T11P: TVP with substitution T11P (EPDEICRARMPNKEFTYKSNVCNNCGDQVAACEAECFRNDVYTACHEAQKG; listed as Eratigena agrestis) .
-- reply 92.9

-- ask Give a short answer stating reported Fold Stability Improvement for A8S: TVP with substitution A8S (EPDEICRSRMTNKEFTYKSNVCNNCGDQVAACEAECFRNDVYTACHEAQKG; listed as Eratigena agrestis) .
-- reply 12.1

-- ask Give a short answer stating reported Fold Stability Improvement for R38A: TVP: wild-type Ta1b with basic amino acid R38 mutated to alanine (EPDEICRARMTNKEFTYKSNVCNNCGDQVAACEAECFANDVYTACHEAQKG; listed as Eratigena agrestis) .
-- reply 8.6

-- ask Give a short answer stating reported Fold Stability Improvement for A8N: TVP with substitution A8N (EPDEICRNRMTNKEFTYKSNVCNNCGDQVAACEAECFRNDVYTACHEAQKG; listed as Eratigena agrestis) .
-- reply 1.8

-- ask Give a short answer stating reported Fold Stability Improvement for EPDEICRAAMTNKEFTYKSNVCNNCGDQVAACEAECFRNDVYTACHEAQKG (TVP-R9A) .
-- reply 247

-- ask Give a short answer stating reported Fold Stability Improvement for EPDEICRAHMTNKEFTYKSNVCNNCGDQVAACEAECFRNDVYTACHEAQKG (TVP-R9H) .
-- reply 16.2

* * *

# TARGET_OR_SYSTEM: bovine trypsin (Bos taurus, UniProt P00760)
# Sequence (P00760 24-246): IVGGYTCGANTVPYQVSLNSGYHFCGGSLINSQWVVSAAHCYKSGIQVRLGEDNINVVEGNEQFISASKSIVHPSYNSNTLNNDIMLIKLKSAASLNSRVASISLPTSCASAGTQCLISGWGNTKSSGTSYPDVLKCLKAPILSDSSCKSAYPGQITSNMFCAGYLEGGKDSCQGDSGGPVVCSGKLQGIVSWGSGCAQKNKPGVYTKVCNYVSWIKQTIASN
# PROTOCOL: Bovine trypsin digest of TVPs
# Assay type: in vitro ADME
# EXPERIMENTAL_SETUP: 1 mg/mL TVP, 0.1 mg/mL bovine trypsin, 50 mM Tris-HCl pH 8.8
Parameter Half Life (min) Bovine Trypsin: see the listing below.
Enter your answer as a number in min; do not include the unit.

Below, 2 substances whose answers are already recorded.
-- ask Give a short answer stating reported Half Life (min) Bovine Trypsin for K18A: TVP: wild-type Ta1b with basic amino acid K18 mutated to alanine (EPDEICRARMTNKEFTYASNVCNNCGDQVAACEAECFRNDVYTACHEAQKG; listed as Eratigena agrestis) .
-- reply 1194

-- ask Give a short answer stating reported Half Life (min) Bovine Trypsin for R38A: TVP: wild-type Ta1b with basic amino acid R38 mutated to alanine (EPDEICRARMTNKEFTYKSNVCNNCGDQVAACEAECFANDVYTACHEAQKG; listed as Eratigena agrestis) .
-- reply 1860

# next substance below
-- ask Give a short answer stating reported Half Life (min) Bovine Trypsin for EPDEICRARMTNKEFTYKSNVCNNCGDQVAACEAECFRNDVYTACHEAQKG (listed as Eratigena agrestis) [WT Ta1b, reference compound] .
-- reply 288
